Target: human melanocortin-4 receptor (human, UniProt P32245 1-332)
Sequence (P32245 whole entry): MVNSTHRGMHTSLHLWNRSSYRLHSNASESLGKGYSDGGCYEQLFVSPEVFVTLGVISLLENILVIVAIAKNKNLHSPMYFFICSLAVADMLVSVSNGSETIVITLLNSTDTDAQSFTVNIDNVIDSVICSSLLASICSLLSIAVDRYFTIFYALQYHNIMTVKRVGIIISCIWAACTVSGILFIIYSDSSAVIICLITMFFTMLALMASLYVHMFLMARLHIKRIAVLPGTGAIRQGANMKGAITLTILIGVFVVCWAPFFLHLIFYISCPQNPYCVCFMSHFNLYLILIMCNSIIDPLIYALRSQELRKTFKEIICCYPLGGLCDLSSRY
Experiment: cell-based or functional assay
Positions of bridges follow the written chain, without caps; N, C: chain ends. Non-standard residues stand in square brackets, D forms with d. dPhe(3,4,5-F3) = N[C@H](Cc1cc(F)c(F)c(F)c1)C(=O)O; dPhe(4-CN) = N#Cc1ccc(C[C@@H](N)C(=O)O)cc1; dPhe(2-Me) = Cc1ccccc1C[C@@H](N)C(=O)O; Orn = NCCC[C@H](N)C(=O)O
REPORTED_METRIC: Intrinsic Activity, cAMP, 10 ng/mL Doxycycline (%)

BINDER | UNIT_NAME | MEASURED
Ac-REN[dPhe(4-CN)]RW[Orn]-NH2 (lactam 2-7; also: acetate salt, acetate salt form; also called Ex 43) [Ac-Arg-cyclo(Glu-Asn-D-Phe(4-CN)-Arg-Trp-Orn)-NH2] | % | 100
Ac-RED[dPhe(4-CN)]RW[Orn]-OH (lactam 2-7; SMILES CC(=O)N[C@@H](CCCNC(=N)N)C(=O)N[C@H]1CCC(=O)NCCC[C@@H](C(=O)O)NC(=O)[C@H](Cc2c[nH]c3ccccc23)NC(=O)[C@H](CCCNC(=N)N)NC(=O)[C@@H](Cc2ccc(C#N)cc2)NC(=O)[C@H](CC(=O)O)NC1=O, also called No. 107) [Ac-Arg-cyclo(Glu-Asp-D-Phe(4-CN)-Arg-Trp-Orn)-OH] | % | 64
Ac-REQ[dPhe(3,4,5-F3)]RW[Orn]-NH2 (lactam 2-7; SMILES CC(=O)N[C@@H](CCCNC(=N)N)C(=O)N[C@H]1CCC(=O)NCCC[C@@H](C(N)=O)NC(=O)[C@H](Cc2c[nH]c3ccccc23)NC(=O)[C@H](CCCNC(=N)N)NC(=O)[C@@H](Cc2cc(F)c(F)c(F)c2)NC(=O)[C@H](CCC(N)=O)NC1=O) [Ac-Arg-cyclo(Glu-Gln-D-Phe(3,4,5-triF)-Arg-Trp-Orn)-NH2] | % | 100
Ac-REQ[dPhe(2-Me)]RW[Orn]-NH2 (lactam 2-7, also called No. 110) [Ac-Arg-cyclo(Glu-Gln-D-Phe(2-Me)-Arg-Trp-Orn)-NH2] | % | 105

Where do the numbers come from? From patent US20100311648A1.
